These data points were gathered from ChEMBL document CHEMBL3988442.

# Target Under Test: Proteasome subunit beta (Trypanosoma cruzi)
# Measurement Notes: Trypanosoma cruzi proteasome chymotrypsin-like activity (TcProtChymo) assay.
# Type: functional
# Design: scale not given: in the data most compounds retested in dose-response had high values
# Measurement Setup: 9.37 µM
Property Label: Percent Effect

Answered examples (3):
Cc1ccc(-c2ncc(C(=O)NCCNC(=O)C(C)C)s2)c(C)c1    2.52%
CCc1nnc2n1CCN(Cc1ccc3c(c1)OCCO3)C2    7.9%
O=C(Cc1ccc2c(c1)CCC2)NCCNc1ncccn1    18.4%

Data request: Specify reported Percent Effect for the compound shown: CC(C)c1ncc2c(n1)CN(Cc1nc(-c3cccs3)no1)CC2
Data returned: 2.33%

Data request: Specify reported Percent Effect for the compound shown: CS(=O)(=O)N1CCC(O)(Cn2c(C3CC3)nc3ccccc3c2=O)CC1
Data returned: 5.77%
